Would you mind telling me the reported switch fluorescence ratio of each entry?
- Tested on: ATP;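 further: ATP exposure 15 min at 22 °C before imaging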
- assay_remarks: switch fluorescence ratio, 500 uM ATP over buffer (Cy3 cluster intensity, sum of 5 cycles each) (fold (ratio)); higher = stronger signal-on switching upon ATP binding; sequences stand for … in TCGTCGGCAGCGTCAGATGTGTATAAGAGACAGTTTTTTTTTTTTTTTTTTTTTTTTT…TC
- condition: aptamer strand: ATP DNA aptamer (quencher-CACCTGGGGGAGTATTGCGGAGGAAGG + anchor), 100 nM annealed; ATP concentration: 500 uM

Here's what some known entries look like.
| sequence_content | switch fluorescence ratio |
| --- | --- |
| CATTTTGTGG | 0.987 |
| GTCGAGGGGG | 0.997 |
| TTGACTTTGA | 1.02 |

Hey, can you go through the list below and give me switch fluorescence ratio for every item?
1. TTAGTCCTTT
2. TGATAATAGA

*A*
[1.03, 0.995]

Give me switch fluorescence ratio for each of these sequences, listed below.
1. TCACGTTTTT
2. TTCTATTTTT
3. CTTTAGGGTG
4. GGGGTGAGCA

*A*
1. 1.01
2. 1.03
3. 1.06
4. 0.976

Record switch fluorescence ratio per entry; entries follow.
1. CCCAGCAGGT
2. CGGGTCGAGC
3. TTGTTGGGCT
4. GCAATTCCCG

*A*
1.9
1
0.981
2.17

For the 2 sequences below, give their switch fluorescence ratio values.
1. AAAAAAAAGG
2. AAGAAGGGCA

*A*
[1, 1]

# per-item lookup of switch fluorescence ratio; items listed below
1. ACGTTGATTC
2. TTTCAGGGAG
3. ATTTTAATGC
4. TTTGGCGTTG
5. AATTACCGCG
6. GCTCTTGGTT

*A*
1. 1.03
2. 1.04
3. 1.02
4. 0.988
5. 1.03
6. 1.02

Value sought for every listed sequence: switch fluorescence ratio.
1. TGCTTCTAAT
2. ACGGGGGGGC
3. TAGGTGTTTT
4. ACAATGTGTG
5. AACTTTGTTG

*A*
[1.02, 1.09, 1.05, 0.985, 1]

For each of the sequences below, state switch fluorescence ratio.
1. GATGTGTTGG
2. TGAGACTAGT
3. AATGGGTGAT
4. ATGCAGCATG

*A*
1. 0.959
2. 0.989
3. 0.983
4. 1.02

I need switch fluorescence ratio for every entry listed below, if you could help.
1. TGGCGCATTC
2. TTAAATGGTT
3. TAAACCCACT
4. TCGCTATTTA
5. GGTAGGCTGC

*A*
1: 1.3; 2: 0.978; 3: 1.24; 4: 1.03; 5: 0.986
